test: yeast display, Sf9 membrane polyspecificity reagent, FACS + sequencing; frameworks hold sequencing errors
MEASURED_ENDPOINT: polyreactivity (PSR sort gate)

[[record]]
residue_codes = "QVQLVESGGGLVQAGGSLRLSCAASGSIFSTYAMGWSRQAPGKERELVAAINRSGGSTTYADSVKGRCTISRDNAKNTVYLQMNSLKPEDTAVYYCAKAFRGHYWGQGTQVSVSS"
measured_endpoint = "polyreactivity (PSR sort gate)"
reported_measurement = "high polyreactivity"

[[record]]
residue_codes = "QVQLVESGGGLVQAGGSLRLSCAASGFIFYRYARGWYRQAPGKEREFVAAITRSAGGTYYADSVKGRFTISRDNAKNTVYLQMNSLKPEDTAVYYCAAVYRSGSRYYLGWYNYWGQGTQVTVSS"
measured_endpoint = "polyreactivity (PSR sort gate)"
reported_measurement = "high polyreactivity"

[[record]]
residue_codes = "QVQLVESGGGLVQAGGSLRLSCAASGRIFYPNAMGWYRQAPGKERELVAGISSGGSTYYADSVKGRFTISRDNAKNTVYLQMNSLKPEDTAVYYCAARVYAHTSRRFLKYDYWGQGTQVTVSS"
measured_endpoint = "polyreactivity (PSR sort gate)"
reported_measurement = "high polyreactivity"

[[record]]
residue_codes = "QVQLVESVGGLVQAGGSLRLSCAASGRTFTTNAMGWYRQAPGKERELVAAITIGDDTYYADSVKGRFTISRDNAKNTVYLQMNSLKPEDTAVYYCAADYKRVPFVTQYVSKDGYWGQGTQVTVSS"
measured_endpoint = "polyreactivity (PSR sort gate)"
reported_measurement = "low polyreactivity"

[[record]]
residue_codes = "QVQLVESGGGLVQAGGSLRLSCAASGIIFRRYAMGWYRQGPGKERELVAAITHRGSTYYADSVKGRFTISRDNAKNTVYLQMNSLKPEDTAVYYCAADGFTRWGRYDYWGQGTQVTVSS"
measured_endpoint = "polyreactivity (PSR sort gate)"
reported_measurement = "high polyreactivity"


Could you share which polyreactivity (PSR sort gate) value was measured for QVQLVESGGGLVQAGGSLRLSCAASGSIFKSYAMGWYRQAPGKERELVAAISGRTGSTYYADSVKGRFTISRDNAKNTVSLQMNSLKPEDTAVYYCAAKSQSLYPFAMNYWGQGTQVTVSS ? high polyreactivity

Could you share which polyreactivity (PSR sort gate) value was measured for QVQLEEAGGGLVQAGGSLRLSCAASGRTFFENAMGWYRQAPGKEREFVAAISYNGGSTYYADSVKGRFTISRDNAKNTVYLQMNSMKPDDTAVYYCAADPNYGYDYWGQGTQVTVSS ? low polyreactivity

Could you share which polyreactivity (PSR sort gate) value was measured for QVPLVEKGGGLVQAGGSLRLSCAASGFTIGYYAMGWYRQAPGKERELVAASTWRGDTTYYADSVKGRFTISRDNAKNTVYLQMNSLKPEDTAVYYCAAEYEVYFDWSYYYWGQGTQVTVSS ? high polyreactivity

---

assay: yeast display, Sf9 membrane polyspecificity reagent, FACS + sequencing; frameworks hold sequencing errors
MEASURED_ENDPOINT: polyreactivity (PSR sort gate)

Worked examples, 6 sequences total:
[[record]]
residue_codes = "QVQLVESGGGLVQAGGSLRISCAASGRTFARYAMGWYRQAPGKERELVAAISRSGSTYYADSVKGRFTISRDNAKNTVYLQMNSLKPEDTAVYFCAKDTRFAGSYKYYYWGQGTQVTVSS"
reported_measurement = "high polyreactivity"

[[record]]
residue_codes = "QVQLVESGGGLVQAGGSLRLSCAATGRIFTRNAMGWYRQAPGKERELVAAISYSGGTTYYADSVKGRFTISRDNAKITVYLQMNSLKPDDTAVYDCAALRPTQRYFTYDYWGHGTQVTVSS"
reported_measurement = "high polyreactivity"

[[record]]
residue_codes = "QVQLVESGGGLVQAGGSLRLSCAASGRIFRYNAMGWYRQAPGKERELVAAITWDGGSTYYADSVKGRFTISRDNAKNTVYLQMNSLKPEDTAVYYCNAVTRSYYSYYYWGQGTQVTVSS"
reported_measurement = "high polyreactivity"

[[record]]
residue_codes = "QVQLVESGGGLVQAGGSLRLSCAASGRIFQGNAMGWYRQAPGKERELVAAITSSGSSTYYADSVKGRFTISRDNAKNTVYLQMNSLKPEDTAVYYCAARATGPIMYYWGQGTQVTVSS"
reported_measurement = "high polyreactivity"

[[record]]
residue_codes = "QVQLVESGGGLVHAGVSLRISCAASGRIFKQYAMGWYRQAPGNERELVAAISVRGGITYYADSVKGRFTISRYHAKNTVYLQMKSLNPEDTAVYYCAKRSYRNHTYDYWGQGTQVTVSS"
reported_measurement = "low polyreactivity"

[[record]]
residue_codes = "QVQLVESGGGLVQAVGSLRLTCAASGSIFGHYAMGLSRHAPGKDRELVAAISASTGRTYNADSVKGRFTISRDNAKNPVYLQMNSLKPEDTAFYYCAVRVHWTIWDYYYWGQGTQVTVSS"
reported_measurement = "high polyreactivity"


Could you share which polyreactivity (PSR sort gate) value was measured for QVQLVESGGGLVQAGGSLRLSCAASGRIFSGNAMGWYRQAPGKERELVAAISWSGGSTYYADSVKGRFTISRDNAKNSVYLQMNSLKPEDTAVSYCNAPGYRRYGSRMGYWGQGTQVTVSS ? high polyreactivity

Could you share which polyreactivity (PSR sort gate) value was measured for QVQLVESGGGLVQAGGSLRLSCAASGRIFSSNAMGWYRQAPGKERELVASISSTGSTKYADSVKGRFTISRDKAKNTVYLQMNSLKQEDSAVYYCAAGRYLWHFTFDYWGQGTQVTVSS ? low polyreactivity

Could you share which polyreactivity (PSR sort gate) value was measured for QVQLVESGGGLVQAGGSLRLSCAASGSILLDYAMGWYRQAPGKERELVAVISRRGTSTYYADSVKGRFTISRDNAKNTVYLQMNSLKPEDTAVYYCATSTWSFYRRYDYWGQGTQVTVSS ? high polyreactivity

Could you share which polyreactivity (PSR sort gate) value was measured for QVQLVESGGGLVQAGGSLRLSCAASGSIFISNAMGWYRQAPGKEWELVAAINWTTGRTRYADSVKGRFTISRDNAKNTVYLQMNSLKPEDTAVYYCAARPYGGGRRSIYYYWGQGHQVTVSS ? high polyreactivity

Could you share which polyreactivity (PSR sort gate) value was measured for QVQLVESGGGLVQAGGSLRLSCAASGSTLTSNAIGWYRQAPGKERELVAAIRSGGSTNYADSVKGRFTISRDNAKNTVYLQMYSLNPEDTAVYYCNAEEKVTYSASYYWVYDAMDHWGQGTQVTVSS ? low polyreactivity

Could you share which polyreactivity (PSR sort gate) value was measured for QVQLVESGGGLVQAGSSLRLSCAASGRIFGYYAMGWYRQAPGKEREFVASITYSGGRTYYADSVKGRFTISRDNAKNTVYLQMNSLKPEDTAVYYCAKRQSFLGVSYDYWGQGTQVTVSS ? high polyreactivity

Could you share which polyreactivity (PSR sort gate) value was measured for QVQLQESGGGLVQAGGSLRLSCAASGNIYDADIMGWYRQAPAKERELVTSITDGGSTNYADSVKGRFTISRDNAKNTVYLQMNSLKPEDTAVYYCAAIAYPDIPTSFDYNSDYSYWGQGTQVTVSS ? low polyreactivity

Could you share which polyreactivity (PSR sort gate) value was measured for QVQLVESGGGLVHAGGSLRLSCAPSRIFVYNAMGWYRQAPGKERELVATITSSGGITYYADSVKGRFTISRDNAKNTVYLQMNSLKPEDTAVYYCNKVRRYYYRTHNDFWGQGTQVTVSS ? high polyreactivity

Could you share which polyreactivity (PSR sort gate) value was measured for QVQLVESGGGLVQAGGSLRLSCAASGSIFAYYAMGWYRQAPGKERELVAAIDSGGGTSYADSVKGRFTISRDNAKNTVYLQMNSLNPEDTAVYYCNAAGYVVYYRIIAFGYWGQGTLVTVSS ? low polyreactivity

Could you share which polyreactivity (PSR sort gate) value was measured for QVQLVESRGGLVQAGGSLRLSCAASVGTFGLNAMGWYSQAPGKERELVADIDGRGGSTYYADSVKGRFTISRDNAKNTFDLQMNSLKPEDTAVYYSAARAPFLSVPSELDYWGQGTQVTVSS ? low polyreactivity

Could you share which polyreactivity (PSR sort gate) value was measured for QVQLVESGGGLVQAGGSLRLSCAASGRIFEYYVMGWYRQAPGKERELVAAINRRGTSTYYADSVKGRFTISRDNAKNTVDLQMNSLKPEDTAVYYCAAVDRDYARTTTYDYCGQGTQVTVSS ? high polyreactivity

Could you share which polyreactivity (PSR sort gate) value was measured for QVQLVESGGGLVQAGGSLRLSCAASGRIFPVNTMGWYRQAQGKVRELVAAITSGGGTYYADSVKGRFTISRDNAKNTVYLQMNSLKPEDTAVYYCNAPEGRKPYDSWGQGTQVTVSS ? low polyreactivity
